Listing of recorded Emax by entry.
- Experimental Target: human FGFR1c + KLB receptor complex on HEK293 iLite FGF21 reporter cells (human, UniProt P11362 22-822; Q86Z14 1-1044)
- Sequence (P11362 22-822, chain 1 of 2): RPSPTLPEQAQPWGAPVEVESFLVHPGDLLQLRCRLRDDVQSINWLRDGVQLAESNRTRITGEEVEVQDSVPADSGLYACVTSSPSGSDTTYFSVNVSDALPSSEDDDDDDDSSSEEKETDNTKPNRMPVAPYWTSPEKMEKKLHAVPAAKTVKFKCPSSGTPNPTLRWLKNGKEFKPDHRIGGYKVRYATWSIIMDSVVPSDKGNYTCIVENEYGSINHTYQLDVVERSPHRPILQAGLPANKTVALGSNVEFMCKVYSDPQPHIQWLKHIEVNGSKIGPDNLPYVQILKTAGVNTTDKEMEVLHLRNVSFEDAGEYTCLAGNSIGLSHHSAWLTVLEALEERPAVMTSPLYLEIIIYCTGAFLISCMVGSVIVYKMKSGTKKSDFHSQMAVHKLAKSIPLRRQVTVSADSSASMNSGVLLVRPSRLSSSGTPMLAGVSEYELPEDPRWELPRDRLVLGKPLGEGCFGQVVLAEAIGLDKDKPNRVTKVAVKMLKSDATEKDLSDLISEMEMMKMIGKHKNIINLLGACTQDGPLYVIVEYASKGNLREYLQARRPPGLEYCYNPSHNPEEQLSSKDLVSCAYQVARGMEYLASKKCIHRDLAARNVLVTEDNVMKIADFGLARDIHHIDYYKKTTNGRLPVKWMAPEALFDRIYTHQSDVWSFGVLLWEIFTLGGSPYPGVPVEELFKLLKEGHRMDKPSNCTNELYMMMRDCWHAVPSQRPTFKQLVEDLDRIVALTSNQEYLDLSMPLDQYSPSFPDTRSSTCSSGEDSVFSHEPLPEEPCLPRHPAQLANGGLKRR
- Sequence (Q86Z14 whole entry, chain 2 of 2): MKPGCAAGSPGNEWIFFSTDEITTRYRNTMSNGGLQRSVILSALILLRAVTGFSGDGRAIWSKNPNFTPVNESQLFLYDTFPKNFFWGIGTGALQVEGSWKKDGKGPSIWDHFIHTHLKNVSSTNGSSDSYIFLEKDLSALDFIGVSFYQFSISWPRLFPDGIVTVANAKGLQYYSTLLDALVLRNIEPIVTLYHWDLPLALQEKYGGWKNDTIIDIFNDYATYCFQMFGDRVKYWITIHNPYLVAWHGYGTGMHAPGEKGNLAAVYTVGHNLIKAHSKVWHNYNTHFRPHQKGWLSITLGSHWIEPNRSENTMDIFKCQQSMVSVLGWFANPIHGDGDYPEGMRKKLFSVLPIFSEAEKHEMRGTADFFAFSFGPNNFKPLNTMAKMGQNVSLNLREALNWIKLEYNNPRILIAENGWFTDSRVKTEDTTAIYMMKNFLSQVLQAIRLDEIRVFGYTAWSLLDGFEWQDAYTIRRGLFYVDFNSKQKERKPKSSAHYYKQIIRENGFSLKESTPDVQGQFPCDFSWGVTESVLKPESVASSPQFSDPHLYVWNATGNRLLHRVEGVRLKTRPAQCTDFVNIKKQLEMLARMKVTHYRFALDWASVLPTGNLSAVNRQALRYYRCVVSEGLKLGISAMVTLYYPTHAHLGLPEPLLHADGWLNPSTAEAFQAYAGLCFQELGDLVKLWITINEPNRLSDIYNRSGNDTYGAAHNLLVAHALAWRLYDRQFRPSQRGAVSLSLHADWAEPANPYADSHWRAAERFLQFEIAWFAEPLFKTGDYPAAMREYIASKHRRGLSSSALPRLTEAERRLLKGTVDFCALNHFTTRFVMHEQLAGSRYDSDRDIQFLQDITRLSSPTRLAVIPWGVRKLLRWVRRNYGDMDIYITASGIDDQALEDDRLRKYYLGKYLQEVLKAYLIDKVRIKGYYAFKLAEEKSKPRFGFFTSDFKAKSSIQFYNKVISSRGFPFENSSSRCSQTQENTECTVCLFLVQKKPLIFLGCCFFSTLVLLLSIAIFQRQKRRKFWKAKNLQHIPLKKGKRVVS
- Procedure Details: cell-based or functional assay
Lab book: enter the figure in %, no units written.

Field: example entries. Status: answers known.
>>> observed_measurement("Ab0361 (antibody, IgG4, V domains shown, IgG4 PE) VH: QVTLKESGPVLVKPTETLTLTCTVSGFSLNNARVGVSWIRQPPGKALEWLAHIFSNDEKSYSTSLKSRLTISKDTSKSQVVLTMTNMDPVDTATYYCARSVVTGGYYYEGMDVWGQGTTVTVSS VL: SYVLTQPPSVSVAPGQTARITCGGSNIGSESVHWYQQKPGQAPVLVVYESSDRPSGIPERFSGSNSGNTATLTISRVEAGDEADYYCQVWEGSSDHVVFGGGTKLTVLG")
986
>>> observed_measurement("Ab0203 (antibody, IgG4, V domains shown, IgG4 PE) VH: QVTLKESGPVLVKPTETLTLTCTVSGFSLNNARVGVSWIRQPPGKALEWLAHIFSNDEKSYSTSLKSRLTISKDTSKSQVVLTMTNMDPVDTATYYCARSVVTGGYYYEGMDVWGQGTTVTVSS VL: SYVLTQPPSVSVAPGQTARITCGGNNIGSESVHWYQQKPGQAPVLVVYDESDRPSGIPERFSGSNSGNTATLTISRVEAGDEADYYCQVWDGNSDHVVFGGGTKLTVLG")
1600

Pending binder:
Ask: Can you look up the measured Emax of Ab0353 (antibody, IgG4, V domains shown, IgG4 PE) VH: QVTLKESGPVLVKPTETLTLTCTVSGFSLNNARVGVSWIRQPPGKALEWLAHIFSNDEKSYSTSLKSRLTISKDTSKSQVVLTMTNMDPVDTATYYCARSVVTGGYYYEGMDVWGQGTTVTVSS VL: SYVLTQPPSVSVAPGQTARITCGGSNIGSESVHWYQQKPGQAPVLVVYEESDRPSGIPERFSGSNSGNTATLTISRVEAGDEADYYCQVWEGASDHVVFGGGTKLTVLG for me?
Reply: 895
